Target: T1, human iRhom2 full length wild type C-terminally tagged with 3 consecutive copies of the T7 epitope (UniProt Q6PJF5 1-856)
T1 chain: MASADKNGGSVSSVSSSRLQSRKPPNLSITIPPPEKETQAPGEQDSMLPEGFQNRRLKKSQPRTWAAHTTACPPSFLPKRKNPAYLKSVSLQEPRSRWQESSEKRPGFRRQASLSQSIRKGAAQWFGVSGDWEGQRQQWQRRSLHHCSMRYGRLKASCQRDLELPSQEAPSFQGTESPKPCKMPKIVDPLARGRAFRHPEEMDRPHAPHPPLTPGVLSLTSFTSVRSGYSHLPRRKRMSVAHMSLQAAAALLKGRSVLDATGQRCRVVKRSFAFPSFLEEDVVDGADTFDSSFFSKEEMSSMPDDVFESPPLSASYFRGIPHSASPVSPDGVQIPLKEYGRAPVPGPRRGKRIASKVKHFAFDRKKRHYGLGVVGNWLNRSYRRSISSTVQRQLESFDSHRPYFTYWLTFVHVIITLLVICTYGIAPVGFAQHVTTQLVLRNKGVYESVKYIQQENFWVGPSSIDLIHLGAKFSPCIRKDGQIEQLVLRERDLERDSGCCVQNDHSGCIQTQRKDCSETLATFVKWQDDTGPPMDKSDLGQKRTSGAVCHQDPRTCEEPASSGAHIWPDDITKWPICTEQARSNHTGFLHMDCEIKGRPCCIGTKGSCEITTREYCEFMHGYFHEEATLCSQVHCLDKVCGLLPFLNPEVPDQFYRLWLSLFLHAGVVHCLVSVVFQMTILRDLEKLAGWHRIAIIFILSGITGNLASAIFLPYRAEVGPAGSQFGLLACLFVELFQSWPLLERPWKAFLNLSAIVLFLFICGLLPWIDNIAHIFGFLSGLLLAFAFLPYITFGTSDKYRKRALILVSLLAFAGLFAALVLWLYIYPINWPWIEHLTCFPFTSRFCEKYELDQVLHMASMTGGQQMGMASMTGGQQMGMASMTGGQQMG
Assay: FACS Scatchard
Note to self: Kd under 0.7 nM means Criterion met, ties and anything higher get Criterion not met.

Say whether its Kd is strictly beneath 0.7 nM. Entry: humanized antibody 42-B-04 (antibody, V domains shown, Tested as whole humanized antibody produced in CHO cells and detected with anti-human IgG; the general methods speak of human IgG1/Kappa; also called clone 42-B-04) VH: QVTLRESGPALVKPTQTLTLTCTFSGFSLSTFGRGVGWIRQPPGKALEWLAHIWWDDEKYYNSALKSRLTISKDTSKNQVVLTITNMDPVDTATYYCARIQNYGSNYWYFDVWGQGTLVTVSS VL: AIQLTQSPSSLSASVGDRVTITCRASSRISYMFWYQQKPGKAPKVLIYDTSNLASGVPSRFSGSGSGTDYTLTISSLQPEDFATYYCQQWNAYPLTFGQGTKLEIK Criterion met

Say whether its Kd is strictly beneath 0.7 nM. Entry: humanized antibody 16-B-05 (antibody, V domains shown, Tested as whole humanized antibody produced in CHO cells and detected with anti-human IgG; the general methods speak of human IgG1/Kappa; The printed LCVD reads SRESGSG where the printed cDNA encodes SRFSGSG; also called clone 16-B-05) VH: QVTLRESGPALVKPTQTLTLTCTFSGFSLSTFALGVGWIRQPPGKALEWLAHIWWDEDKYYNPALKSRLTISKDTSKNQVVLTITNMDPVDTATYYCARITTYYYGMDYWGQGTLVTVSS VL: EIVMTQSPDFQSVTPKEKVTITCRASQSIGNHLHWYQQKPDASPKLLIKYASQSISGVPSRFSGSGSGTDFTLTINSLEAEDAATYFCQQSYNWPLTFGQGTKLEIK Criterion not met

Say whether its Kd is strictly beneath 0.7 nM. Entry: humanized antibody 16-B-03 (antibody, V domains shown, Tested as whole humanized antibody produced in CHO cells and detected with anti-human IgG; the general methods speak of human IgG1/Kappa; also called clone 16-B-03) VH: QVTLRESGPALVKPTQTLTLTCTFSGFSLSTFALGVGWIRQPPGKALEWLAHIWWDDDKYYNPALKSRLTISKDTSKNQVVLTITNMDPVDTATYYCARITTYYYGMDYWGQGTLVTVSS VL: EIVMTQSPDFQSVTPKEKVTITCRASQSIGNHLHWYQQKPDASPKLLIKYASQSISGVPSRFSGSGSGTDFTLTINSLEAEDAATYFCQQSYQWPLTFGQGTKLEIK Criterion met

Say whether its Kd is strictly beneath 0.7 nM. Entry: humanized antibody 16-B-07 (antibody, V domains shown, Tested as whole humanized antibody produced in CHO cells and detected with anti-human IgG; the general methods speak of human IgG1/Kappa; also called clone 16-B-07) VH: QVTLRESGPALVKPTQTLTLTCTFSGFSLSTFALGVGWIRQPPGKALEWLAHIWWDEDKYYNPALKSRLTISKDTSKNQVVLTITNMDPVDTATYYCARITTYYYGMDYWGQGTLVTVSS VL: EIVMTQSPDFQSVTPKEKVTITCRASQSIGNHLHWYQQKPDASPKLLIKYASQSISGVPSRFSGSGSGTDFTLTINSLEAEDAATYFCQQSYQWPLTFGQGTKLEIK Criterion not met

Say whether its Kd is strictly beneath 0.7 nM. Entry: humanized antibody 23-B-04 (antibody, V domains shown, Tested as whole humanized antibody produced in CHO cells and detected with anti-human IgG; the general methods speak of human IgG1/Kappa; also called clone 23-B-04) VH: QVTLRESGPALVKPTQTLTLTCTFSGFSLSTFGMGVGWIRQPPGKALEWLAHIWWDDEKYYNSALKSRLTISKDTSKNQVVLTITNMDPVDTATYYCARISNYGSNYWYFNVWGQGTLVTVSS VL: AIQLTQSPSSLSASVGDRVTITCRASSSVSYMYWYQQKPGKAPKVLIYDTSNLASGVPSRFSGSGSGTDYTLTISSLQPEDFATYYCQQWNAYPLTFGQGTKLEIK Criterion met

Say whether its Kd is strictly beneath 0.7 nM. Entry: humanized antibody 42-B-02 (antibody, V domains shown, Tested as whole humanized antibody from transient expression of heavy chain/kappa light chain pairs in CHO cells, detected with anti-human IgG; the general methods speak of human IgG1/Kappa; also called clone 42-B-02) VH: QVTLRESGPALVKPTQTLTLTCTFSGFSLSTFGRGVGWIRQPPGKALEWLAHIWWDDEKYYNSALKSRLTISKDTSKNQVVLTITNMDPVDTATYYCARIQNYGSNYWYFDVWGQGTLVTVSS VL: AIQLTQSPSSLSASVGDRVTITCRASSRISYMFWYQQKPGKAPKVLIYDTSNLASGVPSRFSGSGSGTDYTLTISSLQPEDFATYYCQQWNSYPLTFGQGTKLEIK Criterion met
